# growth AUC per record follows
system: Bacteroides uniformis; assay: growth AUC relative to DMSO control (median of replicates) (fraction); higher = more growth (less inhibition), active = hit call of the paper; details: 20 µM; 24 h
recorded endpoint: growth AUC

C=CCC1=C(C)C(OC(=O)C2C(C=C(C)C)C2(C)C)CC1=O (mixture of isomers)	0.936
CCc1cc(C)cc(CC)c1-c1c(OC(=O)C(C)(C)C)n2n(c1=O)CCOCC2	1
ClC1=C(Cl)[C@]2(Cl)[C@@H]3[C@@H]4C[C@@H]([C@H]5O[C@@H]45)[C@@H]3[C@@]1(Cl)C2(Cl)Cl	0.979
CCSCCSP(=S)(OC)OC	1.01
CC(C)OC(=O)C(C(=O)OC(C)C)=C1SCCS1	1.01
